- assay_text: Human HepG2 cell viability assay in 384 well format
- Assay type: toxicity, cell-based
- Design: dose 125 nL, time 70.5 hour; concentration not given beside the values
- condition_label: HepG2 cells, read-out: Inhibition
recorded_metric: cytotoxicity at 70.5 h (%)
Numbers only here, please. The scale is %.

{"compound": "Cn1nccc1CCC(=O)N1CCC(c2cnccn2)CC1", "cytotoxicity at 70.5 h (%)": -13.1}
{"compound": "OC1CCN(C2CCN(Cc3cccc(Cn4cccn4)c3)CC2)CC1", "cytotoxicity at 70.5 h (%)": 5.45}
{"compound": "CCn1cc2c(n1)C(COC)CN(C(=O)c1ccccn1)C2 (stereo not drawn)", "cytotoxicity at 70.5 h (%)": -9.71}

Consider the compound Cc1ccn(-c2ccnc(N3CCC(N4CCCCC4)CC3)n2)n1 . State its measured cytotoxicity at 70.5 h. -13.2

Consider the compound COC(=O)CNc1ccc(-c2nc(Cc3ccc(OC)cc3)no2)cn1 . State its measured cytotoxicity at 70.5 h. -10.8

Consider the compound Cn1nc2c(cc1=O)CN(CCCOc1ccc(C#N)cc1)CC2 . State its measured cytotoxicity at 70.5 h. -5.17

Consider the compound CCn1c(C)nnc1CN(C)C1CCN(CCCOC)C1 (stereo not drawn) . State its measured cytotoxicity at 70.5 h. 3.25

Consider the compound CCc1nc(C2CCCN2CC(=O)Nc2nncs2)no1 (stereo not drawn) . State its measured cytotoxicity at 70.5 h. -2.48

Consider the compound CCCC(=O)N1CCC(c2cc3n(n2)[C@@H](C(F)(F)F)C[C@@H](C)N3)CC1 . State its measured cytotoxicity at 70.5 h. -3.97

meta.source: ChEMBL document CHEMBL3507680
